Record form. Attribute: pIC50. Fill in for each entry.
MEASUREMENT_TARGET: β-glucosidase GBA2 (Homo sapiens, UniProt Q9HCG7)
Sequence (Q9HCG7 whole entry): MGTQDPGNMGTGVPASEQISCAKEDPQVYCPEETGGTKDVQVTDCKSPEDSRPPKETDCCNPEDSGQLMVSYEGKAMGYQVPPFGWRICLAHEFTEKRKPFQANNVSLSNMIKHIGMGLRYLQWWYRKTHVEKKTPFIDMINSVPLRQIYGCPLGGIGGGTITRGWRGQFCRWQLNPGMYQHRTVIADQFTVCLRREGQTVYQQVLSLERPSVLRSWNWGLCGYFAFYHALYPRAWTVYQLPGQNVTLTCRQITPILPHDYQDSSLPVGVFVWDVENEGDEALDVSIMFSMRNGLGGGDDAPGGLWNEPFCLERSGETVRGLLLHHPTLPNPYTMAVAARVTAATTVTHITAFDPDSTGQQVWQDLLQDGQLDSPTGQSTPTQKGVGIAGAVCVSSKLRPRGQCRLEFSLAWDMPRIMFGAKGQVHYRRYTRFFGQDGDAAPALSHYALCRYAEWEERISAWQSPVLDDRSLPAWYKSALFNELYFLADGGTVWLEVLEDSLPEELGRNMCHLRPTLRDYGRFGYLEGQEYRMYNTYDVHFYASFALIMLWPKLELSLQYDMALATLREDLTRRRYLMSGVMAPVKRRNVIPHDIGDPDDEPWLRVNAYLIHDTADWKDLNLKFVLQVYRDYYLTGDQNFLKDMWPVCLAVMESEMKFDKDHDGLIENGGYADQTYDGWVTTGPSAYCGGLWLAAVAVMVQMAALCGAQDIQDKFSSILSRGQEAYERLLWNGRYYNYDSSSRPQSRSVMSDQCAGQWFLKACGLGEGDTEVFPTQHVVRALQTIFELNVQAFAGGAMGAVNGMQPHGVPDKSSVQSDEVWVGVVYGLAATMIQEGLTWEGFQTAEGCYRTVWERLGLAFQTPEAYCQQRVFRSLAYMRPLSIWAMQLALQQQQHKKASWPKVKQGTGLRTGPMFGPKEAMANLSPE
ASSAY_INFO: in vitro apparent IC50, GBA2-overexpressing HEK293T lysate
CONDITION_SUMMARY: apparent IC50, pH 5.8, mean ± SD
Conceptually, pIC50 converts a concentration in mol/L into minus its log10.

Data request: Form field: reported pIC50 of CN1[C@H]2[C@H](CO)[C@@H](O)[C@H](O)[C@@H](O)[C@H]2OS1(=O)=O
Data returned: 3.19

Data request: # iterate: CN1[C@@H]2[C@H](O)[C@@H](O)[C@H](O)[C@@H](CO)[C@@H]2OS1(=O)=O
Data returned: 3.41
